Tested on: LnCAP cells
Experiment Description: LnCAP gene expression
Assay type: cell-based
Cond: Homo sapiens, read-out: LnCAP Gene Expression EC50 (nM) PSA
Assay Readout: EC50 (nM)

Compound: C[C@]1(O)CC[C@H]2[C@@H]3CCC4=CC(=O)CCC4=C3C=C[C@@]21C [R1881]
Test Target: LnCAP cells
Readout Units: nM
Endpoint Result: 0.034

Taken from patent US20180185347A1.
